molecular target: UniProtKB Q00910; test: [3H]PGE2 uptake inhibition in MDCK cells stably transfected with rat PGT (percent inhibition and IC50); assay type: cell-based; conditions: 1 μM compound; inhibition of [3H]PGE2 uptake
readout.type: Inh (% of Ctl) 1 μM

Example results:
O=C(NCCOCCOCCNc1nc(Nc2ccc(C(=O)NCc3ccc(F)cc3)cc2)nc(Nc2ccc3[nH]cnc3c2)n1)c1ccccc1 39.2 % of Ctl
O=C(NCc1ccc(F)cc1)c1ccc(Nc2nc(Nc3ccc(O)cc3)nc(Nc3ccc(CNCc4ccccc4)cc3)n2)cc1 17.6 % of Ctl
COc1ccc(C(=O)NCCOCCOCCNc2nc(Nc3ccccc3)nc(Nc3ccc(O)cc3)n2)cc1 29.0 % of Ctl
O=C(NCCOCCOCCNc1nc(Nc2ccccc2)nc(Nc2ccc3[nH]nnc3c2)n1)c1ccccc1 1.9 % of Ctl

Hello, I would appreciate it if you could give Inh (% of Ctl) 1 μM for each entry below.
1. COC(=O)c1cc(Nc2nc(NCCOCCOCCNC(=O)c3ccccc3)nc(Nc3ccc(C(=O)NCc4ccc(F)cc4)cc3)n2)ccc1O
2. O=C(O)c1cccc(Nc2nc(NCCOCCOCCNC(=O)c3ccccc3)nc(Nc3ccc(C(=O)NCc4ccc(F)cc4)cc3)n2)c1

Reply:
["10.8 % of Ctl", "23.9 % of Ctl"]

Hello, I would appreciate it if you could give Inh (% of Ctl) 1 μM for each entry below.
1. O=C(NCCOCCOCCNc1nc(Nc2ccccc2)nc(Nc2ccc(O)cc2)n1)c1cccnc1
2. O=C(NCCOCCOCCNc1nc(Nc2ccccc2)nc(Nc2ccc(O)cc2)n1)c1cc(F)cc(F)c1
3. CC(=O)NCCOCCOCCNc1nc(Nc2ccccc2)nc(Nc2ccc(O)cc2)n1
4. O=C(O)COCCOCCNc1nc(Nc2ccccc2)nc(Nc2ccc(O)cc2)n1

Reply:
1: 13.2 % of Ctl; 2: 20.4 % of Ctl; 3: 0.3 % of Ctl; 4: 17.4 % of Ctl

Hello, I would appreciate it if you could give Inh (% of Ctl) 1 μM for each entry below.
1. O=C(NCCOCCOCCNc1nc(Nc2ccccc2)nc(Nc2ccc(-c3nnn[nH]3)cc2)n1)c1ccccc1
2. O=C(NCCOCCOCCNc1nc(Nc2ccccc2)nc(Nc2ccc(O)cc2)n1)c1ccc(-c2ccccc2)cc1
3. COC(=O)CCCCCCNC(=O)c1ccc(Nc2nc(NCCOCCOCCNC(=O)c3ccccc3)nc(Nc3ccc(O)cc3)n2)cc1
4. CCCCCCNC(=O)c1ccc(Nc2nc(NCCOCCOCCNC(=O)c3ccccc3)nc(Nc3ccc(O)cc3)n2)cc1
5. CCCCCCNC(=O)c1ccc(Nc2nc(NCCOCCOCCNC(=O)c3ccccc3)nc(Nc3ccc4[nH]ncc4c3)n2)cc1

Reply:
1: 33.7 % of Ctl; 2: 16.3 % of Ctl; 3: 34.8 % of Ctl; 4: 65.0 % of Ctl; 5: 66.4 % of Ctl

Hello, I would appreciate it if you could give Inh (% of Ctl) 1 μM for each entry below.
1. CC(=O)NCCOCCNc1nc(Nc2ccc(O)cc2)nc(Nc2ccc(C(=O)NCc3ccccc3)cc2)n1
2. N[C@@H](C(=O)NCCOCCNc1nc(Nc2ccc(O)cc2)nc(Nc2ccc(C(=O)NCc3ccccc3)cc2)n1)c1ccccc1
3. O=C(NCCCCCCCNc1nc(Nc2ccccc2)nc(Nc2ccc(O)cc2)n1)c1ccccc1
4. O=C(NCCOCCOCCNc1nc(Nc2ccc(O)cc2)nc(Nc2ccc(C(=O)NCc3cccc(F)c3F)cc2)n1)c1ccccc1
5. O=C(NCCOCCOCCNc1nc(Nc2ccccc2)nc(Nc2ccc(O)cc2)n1)c1ccccc1
6. COC(=O)COCCOCCNC(=O)c1ccc(Nc2nc(NCCOCCOCCNC(=O)c3ccccc3)nc(Nc3ccc(O)cc3)n2)cc1
7. O=C(NCCOCCOCCNc1nc(Nc2ccc(C(=O)NCc3ccccc3)cc2)nc(Nc2ccc3[nH]ncc3c2)n1)c1ccccc1

Reply:
10.9 % of Ctl
32.4 % of Ctl
11.0 % of Ctl
70.0 % of Ctl
32.4 % of Ctl
22.6 % of Ctl
71.6 % of Ctl

Query: # return Inh (% of Ctl) 1 μM of O=C(NCCOCCOCCNc1nc(Nc2ccc(O)cc2)nc(Nc2ccc(C(=O)NCc3ccc(F)c(F)c3)cc2)n1)c1ccccc1 (system: UniProtKB Q00910)
Reply: 65.6 % of Ctl

----------
biological target: rat PGT (Rattus norvegicus (Rat)); test: [3H]PGE2 uptake inhibition in MDCK cells stably transfected with rat PGT (percent inhibition and IC50); type: cell-based; details: 2.5 μM compound; inhibition of [3H]PGE2 uptake
Would you kindly list Inh (% of Ctl) 2.5 μM for each of these compounds?

O=C(NCCOCCOCCNc1nc(Nc2ccc(O)cc2)nc(Nc2ccc(C(=O)NCc3ccc(Br)cc3)cc2)n1)c1ccccc1 59.8 % of Ctl
O=C(NCCOCCOCCNc1nc(Nc2ccc(O)cc2)nc(Nc2ccc(C(=O)NCc3ccc(-c4ccccc4)cc3)cc2)n1)c1ccccc1 43.3 % of Ctl
O=C(NCCOCCNc1nc(Nc2ccc(O)cc2)nc(Nc2ccc(C(=O)NCc3ccc(Cl)cc3)cc2)n1)c1ccccc1 24.9 % of Ctl
Cc1cccc(CNC(=O)c2ccc(Nc3nc(NCCOCCOCCNC(=O)c4ccccc4)nc(Nc4ccc(O)cc4)n3)cc2)c1 80.7 % of Ctl
O=C(NCCOCCOCCNc1nc(Nc2ccc(O)cc2)nc(Nc2ccc(C(=O)NCc3cccc4ccccc34)cc2)n1)c1ccccc1 76.5 % of Ctl
O=C(NCCOCCOCCNc1nc(Nc2ccc(O)cc2)nc(Nc2cccc(C(=O)NCc3ccccc3)c2)n1)c1ccccc1 24.5 % of Ctl
O=C(NCCOCCOCCNc1nc(Nc2ccc(O)cc2)nc(Nc2ccc(C(=O)NCc3ccc4[nH]ccc4c3)cc2)n1)c1ccccc1 66.7 % of Ctl
O=C(NCCOCCOCCNc1nc(Nc2ccc(O)cc2)nc(Nc2ccc(C(=O)NCc3cccc(-c4ccccc4)c3)cc2)n1)c1ccccc1 60.6 % of Ctl

Hello, I would appreciate it if you could give Inh (% of Ctl) 2.5 μM for each entry below.
1. O=C(NCCOCCOCCNc1nc(Nc2ccc(O)cc2)nc(Nc2ccc(C(=O)NCc3ccccc3)c(C(F)(F)F)c2)n1)c1ccccc1
2. O=C(NCCOCCOCCNc1nc(Nc2ccc(O)cc2)nc(Nc2ccc(C(=O)NCCc3ccccc3)cc2)n1)c1ccccc1
3. O=C(O)c1ccc(CNC(=O)c2ccc(Nc3nc(NCCOCCOCCNC(=O)c4ccccc4)nc(Nc4ccc(O)cc4)n3)cc2)cc1

Reply:
1. 5.0 % of Ctl
2. 81.5 % of Ctl
3. 32.2 % of Ctl

Hello, I would appreciate it if you could give Inh (% of Ctl) 2.5 μM for each entry below.
1. COC(=O)[C@H](NC(=O)c1ccc(Nc2nc(NCCOCCOCCNC(=O)c3ccccc3)nc(Nc3ccc(O)cc3)n2)cc1)c1ccccc1
2. O=C(NCCOCCOCCNc1nc(Nc2ccc(O)cc2)nc(Nc2ccc(C(=O)NCc3ccccc3Cl)cc2)n1)c1ccccc1

Reply:
1: 38.9 % of Ctl; 2: 68.8 % of Ctl

----------
target: rat PGT (Rattus norvegicus (Rat), UniProt Q00910); assay: [3H]PGE2 uptake inhibition in MDCK cells stably transfected with rat PGT (percent inhibition and IC50); conditions: [3H]PGE2 uptake, MDCK cells stably transfected with rat PGT
In plain terms, low IC50, meaning strictly below 0.2 µM, gives True, and everything else gives False.

Consider the worked cases shown below.
molecule	answer.label
O=C(NCCOCCNc1nc(Nc2ccccc2)nc(Nc2ccc(O)cc2)n1)c1ccccc1	False
O=C(O)Cc1ccc(Nc2nc(NCCOCCOCCNC(=O)c3ccccc3)nc(Nc3ccccc3)n2)cc1	False
O=C(NCCOCCOCCNc1nc(Nc2ccc(C(=O)NCc3ccc(F)cc3)cc2)nc(Nc2ccc(O)c(F)c2)n1)c1ccccc1	True

Query: Please determine if O=C(NCCOCCOCCNc1nc(Nc2ccc(O)cc2)nc(Nc2ccc(C(=O)NCc3ccccc3)cc2)n1)c1ccccc1 [compound 22] is below 0.2 µM in terms of IC50.
Reply: True

Query: Please determine if O=C(NCCOCCOCCNc1nc(Nc2ccc(O)cc2)nc(Nc2ccc(C(=O)NCc3cccc(Cl)c3)cc2)n1)c1ccccc1 is below 0.2 µM in terms of IC50.
Reply: False

Query: Please determine if O=C(NCCOCCNc1nc(Nc2ccc(O)cc2)nc(Nc2ccc(C(=O)NCc3ccccc3)cc2)n1)c1ccc(F)cc1 is below 0.2 µM in terms of IC50.
Reply: True

Query: Please determine if CCCCCCNC(=O)c1ccc(Nc2nc(NCCOCCOCCNC(=O)c3ccccc3)nc(Nc3ccc(O)cc3)n2)cc1 is below 0.2 µM in terms of IC50.
Reply: False

Query: Please determine if O=C(NCCOCCNc1nc(Nc2ccc(O)cc2)nc(Nc2ccc(C(=O)NCc3ccccc3)cc2)n1)c1ccccc1 is below 0.2 µM in terms of IC50.
Reply: True

Query: Please determine if O=C(O)C(F)(F)F.[N-]=[N+]=NCCOCCOCCNC(=O)c1ccc(Nc2nc(NCCOCCOCCNC(=O)c3ccccc3)nc(Nc3ccc(O)cc3)n2)cc1 is below 0.2 µM in terms of IC50.
Reply: False

These measurements were taken from patent US8952150B2.
